Data credit: PubChem BioAssay AID1159580

Could you please report measured normalized growth for the items listed next?
Experiment: chemical genetic growth profiling, strain panel (AID 1159580);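 also: tested at 20 µM; growth read once vehicle control cultures reached saturation at 30 °C; 1 = growth at the plate median or of vehicle wells; lower values mean less growth of the strain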
Settings: S. cerevisiae deletion strains, growth OD, locus YDL134C, strain PPH21, stronger effect = lower value
Among all 5,500 compounds or so, about 2,000 (36%) were called active. Roughly 18% stayed inconclusive and do not appear here. The list shows a part of the results.

**Q:** Which value of normalized growth has been reported for `O=C(O)c1ccccc1Sc1c(C(=O)O)cc([N+](=O)[O-])cc1[N+](=O)[O-]` in the records?
**A:** 0.976 (inactive)

**Q:** Next record, please: `CN1CCC[C@H]1c1cccnc1`
**A:** 0.994 (inactive)

**Q:** Next record, please: `COc1cc(O)c2c(c1)C(=O)c1cc(C)cc(O)c1C2=O`
**A:** 1 (inactive)

**Q:** Next record, please: `C/C(=N/O)c1ccc2c(c1)C(C)(C)CCC2(C)C`
**A:** 0.99 (inactive)

**Q:** Next record, please: `COc1cc([C@@H]2c3cc4c(cc3[C@H](O)[C@H]3COC(=O)[C@H]23)OCO4)cc(OC)c1OC`
**A:** 1.02 (inactive)

**Q:** Next record, please: `Cc1cc(O)c2c(c1)C(=O)c1cc(O)cc(O)c1C2=O`
**A:** 0.783 (active)

**Q:** Next record, please: `CC[C@H]1OC(=O)[C@H](C)[C@@H](O[C@H]2C[C@@](C)(OC)[C@@H](O)[C@H](C)O2)[C@H](C)[C@@H](O[C@@H]2O[C@H](C)C[C@H](N(C)C)[C@H]2O)[C@](C)(O)C[C@@H](C)/C(=N/OCOCCOC)[C@H](C)[C@@H](O)[C@]1(C)O`
**A:** 1.01 (inactive)

**Q:** Next record, please: `COc1cc(C2Nc3cccc4cccc(c34)N2)cc(OC)c1OC`
**A:** 0.985 (inactive)

**Q:** Next record, please: `COc1cc2cccc(OC)c(=O)c2c(OC)c1OC`
**A:** 1.01 (inactive)

**Q:** Next record, please: `CN1CCN(C2=Nc3cc(Cl)ccc3Nc3ccccc32)CC1`
**A:** 0.991 (inactive)

**Q:** Next record, please: `N=C(N)SCc1c(F)cccc1Cl`
**A:** 1 (inactive)
